- EXPERIMENT_DESCRIPTION: reduction of polyQ htt aggregates in cells – imaging, exon1htt(103Q)mCFP cells, high-content imaging, primary screen (AID 483);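 further: compound exposure lasted 3 days before fixation; percent of the per-plate median nuclei count of sample wells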
- STATED_CONDITIONS: exon1htt(103Q)mCFP cell line, aggregate imaging, at 2 µM; measured here: cell count, toxicity
In this section we review reported nuclei count values for a set of molecules.

{"columns": ["MOLECULE", "nuclei count / %"],
 "data": [
  ["O=C(CN1CCN(c2ncc(C(F)(F)F)cc2Cl)CC1)Nc1ccc2c(c1)OCO2", 106],
  ["CSc1ccccc1NS(=O)(=O)c1ccccc1", 96.9],
  ["CCOc1ccc2cc(C#N)c(SCC(=O)N3CCCC3)nc2c1", 99.8],
  ["N#CC(C(=O)CCN1C(=O)C2CC=CCC2C1=O)c1nc2ccccc2[nH]1 (configuration not stated)", 93.8],
  ["COC(=O)c1[nH]c(C)c(/C(O)=C2\\C(=O)C(=O)N(CCCN3CCOCC3)C2c2ccccn2)c1C (configuration not stated)", 110],
  ["Cc1ccc(CNC(=O)CSc2n[nH]c(N)n2)cc1", 44.8],
  ["Cc1ccc(-n2c(=O)[nH]c3c(C(N)=O)nc(CC(C)C)nc32)cc1", 92.3],
  ["COc1cc(OC)cc(-c2nc3nc(C)c(CCC(=O)O)c(C)n3n2)c1", 111],
  ["Nc1nc(-c2ccc(Cl)cc2)cc(C(F)(F)F)n1", 103],
  ["CCCS(=O)(=O)N1CCN(C(=O)CCC2CCCC2)CC1", 77.9],
  ["CCCn1c(=O)c2ccccc2n2c(SCc3cc(=O)n4ccsc4n3)nnc12", 90.4],
  ["CCc1cccc2c3c([nH]c12)C(CC)(CC(=O)O)OCC3 (configuration not stated)", 111],
  ["CCCCC(c1nnnn1C1CCCC1)N1CCN(C2CCCCC2)CC1 (configuration not stated)", 100],
  ["NS(=O)(=O)c1cc2c(cc1Cl)NCNS2(=O)=O", 107],
  ["O=C(CSc1nnc(Cn2cnc3ccccc32)o1)c1ccccc1", 92.9],
  ["c1ccc2[nH]c(CSc3nnc(-c4ccncc4)o3)nc2c1", 83],
  ["CCN1CCN(CCCNC(=O)c2cn(CCOC)c(=O)c3c2c2ccccc2n3C)CC1", 103],
  ["CCOC(=O)CSc1nc2ccccc2c(=O)n1CCN1CCOCC1", 96.3],
  ["Cn1c(=O)c2c(nc(SCC(=O)NCc3ccc4c(c3)OCO4)n2Cc2ccccc2)n(C)c1=O", 104],
  ["CCCCCCNC(=O)Cc1c(O)c2ccccc2[nH]c1=O", 122],
  ["CCOc1ccc(C(=O)N2CCC(C(=O)c3ccc4c(c3)OCCO4)CC2)cc1", 91.2],
  ["CN(C(=O)COC(=O)C1CCN(S(=O)(=O)c2cccs2)CC1)C1CCS(=O)(=O)C1 (configuration not stated)", 51.8]
]}

###

- EXPERIMENT_DESCRIPTION: endothelial E-selectin expression blockers – imaging, HUVEC, immunofluorescence, MLSMR starter and 10KST1 sets, primary screen (AID 487);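 further: signal is fraction of cell area covered by stained E-selectin grains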
- STATED_CONDITIONS: HUVEC TNFalpha-induced E-selectin immunofluorescence imaging, at 2 µM; stronger effect = higher value
The source made the active and inactive calls.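 The calls were made as follows: active = visually confirmed hit in the image check and inhibition above 20%; inconclusive = visually confirmed hit but inhibition not above 20%; inactive = no visual hit in the image check.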
Reported inhibition by item:

{"columns": ["MOLECULE", "inhibition"],
 "data": [
  ["CC1(C)Cc2noc(N)c2C(C)(C)N1OC(=O)c1cccs1", "-80.4% (inactive)"],
  ["CCN1CCN(Cc2c(C)[nH]c3ccc(OC)cc3c2=O)CC1", "-241% (inactive)"],
  ["CC(=O)Nc1nc(-c2ccc(Cl)cc2)nc(C)c1C(C)=O", "-9.1% (inactive)"],
  ["CCOP(=O)(c1ccc(N(C)C)cc1)C(O)c1cc(OC)c(OC)c(OC)c1 (stereo unspecified)", "10.2% (inactive)"],
  ["O=C(O)CCC(=O)Nc1ccc(S(=O)(=O)Nc2nccs2)cc1", "-59.2% (inactive)"],
  ["CCOC(=O)C1CCN(C(=O)c2ccc(OC)cc2OC)CC1", "43.5% (inactive)"]
]}
